Read-out: Matrix Metallopeptidase 9 (MMP9), MMP9 (gene 4318)
Assay: BSK_KF3CT_MMP9: BioMAP Diversity Plus: KF3CT Assay for Matrix Metallopeptidase 9 (MMP9) Biomarker Activity (AID 2283074)
Conditions: primary human keratinocytes with fibroblasts; actives raise or lower the signal
Activity calls are given as the source filed them. How the source made its calls: active means hit-call score of the fitted dose curve at least 0.9, where 1 is the maximum; inactive means score below 0.9.
Possible outcomes: active, inactive

INSERT INTO measurements (compound, group_label) VALUES
  ('O=C(O)Cc1ccccc1Nc1c(Cl)cccc1Cl', 'inactive'),
  ('COCCOC[C@H](CC1(C(=O)NC2CCC(C(=O)O)CC2)CCCC1)C(=O)Oc1ccc2c(c1)CCC2 (some centres not stated)', 'inactive'),
  ('CN[C@H]1CC[C@@H](c2ccc(Cl)c(Cl)c2)c2ccc(S(N)(=O)=O)cc21', 'active'),
  ('Cc1ccccc1Cl', 'inactive'),
  ('C[Si]1(C)O[Si](C)(C)O[Si](C)(C)O[Si](C)(C)O1', 'inactive'),
  ('Cc1ccc(C)c(C)c1', 'inactive'),
  ('CCCCCCCC=O', 'inactive'),
  ('CCCCCCC(=O)OCC', 'inactive'),
  ('CCOC(=O)C(C)(C)Oc1ccc(Cl)cc1', 'inactive'),
  ('Cc1ccc(N(C)C)cc1', 'inactive'),
  ('COc1cc(S(=O)(=O)O)c(C)cc1N=Nc1c(O)ccc2cc(S(=O)(=O)O)ccc12', 'inactive'),
  ('CC=Cc1ccc(O)c(OC)c1', 'inactive'),
  ('CC1(C)NC(=O)NC1=O', 'inactive'),
  ('CCCCc1ccc2c(n1)[C@@H](c1ccc(OC)cc1C[C@H](C)C(=O)O)[C@H](C(=O)O)[C@H]2c1ccc2c(c1)OCO2', 'inactive'),
  ('COc1cc(-c2nc(NC(=O)c3cc4cc(C)cc(C)c4n3CC(=O)O)sc2CCC2CCCCC2)c(OC)cc1Cl', 'active'),
  ('CCCCCC(=O)O', 'inactive'),
  ('Cc1nc(C)nc(N2C[C@@H](C)N(c3ccnc([C@@H](C)O)n3)[C@@H](C)C2)n1', 'inactive'),
  ('OC[C@@H](O)[C@@H](O)[C@H](O)[C@H](O)CO', 'inactive'),
  ('COc1cc(C=O)ccc1O', 'inactive'),
  ('CCOC(=O)CCC(=O)OCC', 'inactive'),
  ('CCCc1cc(=O)[nH]c(=S)[nH]1', 'inactive'),
  ('O=c1[nH]cc(F)c(=O)[nH]1', 'inactive'),
  ('COCCOCCOC', 'inactive'),
  ('Cc1cccc([N+](=O)[O-])c1C', 'inactive'),
  ('Cc1ccc(C)c(O)c1C', 'inactive'),
  ('CC(=O)C(C)=CC1C(C)=CCCC1(C)C (configuration not stated)', 'inactive'),
  ('CC(=O)Oc1ccccc1C(=O)O', 'inactive');

----------
Read-out: Interleukin-1 alpha (IL1a), IL1A (gene 3552)
Experiment: BSK_BE3C_IL1a: BioMAP Diversity Plus: BE3C Assay for Interleukin-1 alpha (IL1a) Biomarker Activity (AID 2283016)
Conditions: primary human bronchial epithelial cells; actives raise or lower the signal
The source made the active and inactive calls. How the source made its calls: active means hit-call score of the fitted dose curve at least 0.9, where 1 is the maximum; inactive means score below 0.9.
Outcomes: label 1 (active), label 0 (inactive)

INSERT INTO results (compound, group_label) VALUES
  ('Cc1cc(NC(=O)C(=O)O)cc(C)c1Oc1ccc(O)c2c1CCC2', 'label 0'),
  ('CCCCCCC(=O)OCC', 'label 0'),
  ('CC1(C)CC(N=C=O)CC(C)(CN=C=O)C1 (stereo not drawn)', 'label 0'),
  ('COCCOCCOC', 'label 0'),
  ('CC1=C(/C=C/C(C)=C/C=C/C(C)=C/CO)C(C)(C)CCC1', 'label 0'),
  ('CCOC(=O)C(C)(C)Oc1ccc(Cl)cc1', 'label 0'),
  ('CCCCCCCCCCC', 'label 0'),
  ('Cc1nc(C)nc(N2C[C@@H](C)N(c3ccnc([C@@H](C)O)n3)[C@@H](C)C2)n1', 'label 0'),
  ('CCCCCCCCCCCC(=O)OC', 'label 0'),
  ('Nc1nc(N)c2nc(CNc3ccc(C(=O)N[C@@H](CCC(=O)O)C(=O)O)cc3)cnc2n1', 'label 0'),
  ('CCCCC(CC)COC(=O)CC(C(=O)OCC(CC)CCCC)S(=O)(=O)O (stereo not drawn)', 'label 1'),
  ('Cc1ccc2ncccc2c1', 'label 0'),
  ('Cc1ccc(N(C)C)cc1', 'label 0');

----------
Target: human Thyroid Receptor Alpha (TRa), THRA (gene 7067) (UniProt P10827)
Sequence (P10827 whole entry, looked up): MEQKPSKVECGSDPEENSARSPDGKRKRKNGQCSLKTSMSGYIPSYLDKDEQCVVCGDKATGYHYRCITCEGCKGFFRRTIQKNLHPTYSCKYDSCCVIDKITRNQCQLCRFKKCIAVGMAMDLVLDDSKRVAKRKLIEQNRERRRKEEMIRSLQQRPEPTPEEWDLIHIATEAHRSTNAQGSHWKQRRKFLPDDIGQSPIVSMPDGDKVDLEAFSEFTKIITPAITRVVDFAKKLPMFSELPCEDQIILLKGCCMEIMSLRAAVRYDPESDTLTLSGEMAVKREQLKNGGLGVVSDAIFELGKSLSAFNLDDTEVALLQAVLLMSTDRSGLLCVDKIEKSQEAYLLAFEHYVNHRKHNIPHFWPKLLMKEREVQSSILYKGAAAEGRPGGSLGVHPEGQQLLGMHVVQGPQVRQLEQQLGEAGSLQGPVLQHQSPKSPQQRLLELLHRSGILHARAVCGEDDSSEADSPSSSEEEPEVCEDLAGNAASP
Test: NVS_NR_hTRa_Antagonist: NovaScreen (NVS) Nuclear Receptor Binding Assay for human Thyroid Receptor Alpha Antagonism (TRa) (AID 2283362);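 further: activity is loss of signal relative to DMSO baseline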
Inconclusive results are not listed. The source made the active and inactive calls. The calls were made as follows: active = hit-call score of the fitted dose curve at least 0.9, where 1 is the maximum; inconclusive = response in the unintended direction; inactive = score below 0.9.
Outcomes: yes (1) = active, no (0) = inactive

INSERT INTO assay_data (compound, group_label) VALUES
  ('Cc1nc(-c2ccc3c(c2)CCN(CCC2CCC(NC(=O)/C=C/c4ccc(F)cc4)CC2)CC3)no1 (stereo not given)', 'no (0)'),
  ('Cc1c(C(=O)O)c(O)cc2c1C(=O)c1c(O)c([C@@H]3O[C@H](CO)[C@@H](O)[C@H](O)[C@H]3O)c(O)c(O)c1C2=O', 'yes (1)'),
  ('CCOC(=O)C(C)(C)Oc1ccc(Cl)cc1', 'no (0)'),
  ('Oc1ccc2ccccc2c1N=Nc1ccccc1', 'no (0)'),
  ('CCCCOC(=O)CCCCCCCCC(=O)OCCCC', 'no (0)');

----------
Read-out: Macrophage colony-stimulating factor (MCSF), CSF1 (gene 1435)
Experiment: BSK_hDFCGF_MCSF: BioMAP Diversity Plus: hDFCGF Assay for Macrophage colony-stimulating factor (MCSF) Biomarker Activity (AID 2283060)
Conditions: primary human foreskin fibroblasts; actives raise or lower the signal
Calls of active or inactive are those of the source. How the source made its calls: active means hit-call score of the fitted dose curve at least 0.9, where 1 is the maximum; inactive means score below 0.9.
Outcome codes: YES (active), NO (inactive)

INSERT INTO measurements (compound, group_label) VALUES
  ('CCCCCC(=O)O', 'NO'),
  ('CN1CCCC1=O', 'NO'),
  ('CN[C@H]1CC[C@@H](c2ccc(Cl)c(Cl)c2)c2ccc(S(N)(=O)=O)cc21', 'YES'),
  ('Cc1ccc(C)c(C)c1', 'NO'),
  ('Nc1nc(N)c2nc(CNc3ccc(C(=O)N[C@@H](CCC(=O)O)C(=O)O)cc3)cnc2n1', 'NO'),
  ('CCCCC(CC)COC(=O)CC(C(=O)OCC(CC)CCCC)S(=O)(=O)O (configuration not stated)', 'YES'),
  ('O=C(O)Cc1ccccc1Nc1c(Cl)cccc1Cl', 'NO'),
  ('COc1ccc2c(c1)c(CC(=O)O)c(C)n2C(=O)c1ccc(Cl)cc1', 'NO'),
  ('FC(F)(F)C(F)(F)C(F)(F)C(F)(F)C(F)(F)C(F)(F)CCI', 'NO'),
  ('CCCCCCCC=O', 'NO'),
  ('O=C(N[C@@H](Cc1ccccc1)[C@@H](O)C(=O)N1C[C@@H](O)[C@@H](O)C1)c1cc2cc(Cl)ccc2[nH]1', 'NO'),
  ('CCNc1cccc(C)c1', 'NO'),
  ('Cc1ccc(C)c(O)c1C', 'NO'),
  ('NS(=O)(=O)c1cc2c(cc1Cl)NCNS2(=O)=O', 'NO'),
  ('Cc1ccc(N(C)C)cc1', 'NO'),
  ('COc1ccc(S(=O)(=O)N2C(=O)[C@@](c3ccccc3OC)(N3C[C@H](O)C[C@H]3C(=O)N(C)C)c3cc(Cl)ccc32)c(OC)c1', 'NO'),
  ('CCOC(=O)C(C)(C)Oc1ccc(Cl)cc1', 'NO'),
  ('Cc1cccc(C)c1O', 'NO'),
  ('NC(=O)Cn1c(=O)cc(CCN2CCN(c3nccc4sccc34)CC2)c2ccc(F)cc21', 'NO'),
  ('O=c1[nH]cc(F)c(=O)[nH]1', 'NO'),
  ('Cc1ccc2ncccc2c1', 'NO'),
  ('CCCc1cc(=O)[nH]c(=S)[nH]1', 'NO'),
  ('CC(=O)C(C)=CC1C(C)=CCCC1(C)C (configuration not stated)', 'NO'),
  ('CC=Cc1ccc(O)c(OC)c1', 'NO'),
  ('COCCOCCOC', 'NO'),
  ('CC(CO)OC(C)CO (configuration not stated) (tested in a mixture with another compound)', 'NO'),
  ('CCCCCCCCCCC', 'NO');

----------
Molecular target: D(1A) dopamine receptor (Homo sapiens) (UniProt P21728)
Sequence (P21728 whole entry, looked up): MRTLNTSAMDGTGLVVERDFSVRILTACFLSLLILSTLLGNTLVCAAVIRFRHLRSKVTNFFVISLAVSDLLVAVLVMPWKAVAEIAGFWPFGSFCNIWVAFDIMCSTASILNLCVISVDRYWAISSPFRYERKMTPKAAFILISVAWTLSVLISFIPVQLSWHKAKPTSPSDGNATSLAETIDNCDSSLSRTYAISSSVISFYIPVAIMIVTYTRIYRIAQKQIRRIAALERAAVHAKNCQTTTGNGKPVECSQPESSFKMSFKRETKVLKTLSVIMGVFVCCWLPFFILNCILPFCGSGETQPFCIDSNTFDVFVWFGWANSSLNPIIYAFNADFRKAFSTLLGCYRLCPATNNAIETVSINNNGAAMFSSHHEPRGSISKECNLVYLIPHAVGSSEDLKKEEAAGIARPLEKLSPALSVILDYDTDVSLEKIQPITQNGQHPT
Assay: NVS_GPCR_hDRD1: NovaScreen (NVS) G Protein-Coupled Receptor Assay for human Dopamine Receptor D1 (DRD1) (AID 2283269)
Results filed as inconclusive are left out. Calls of active or inactive are those of the source. How the source made its calls: active means hit-call score of the fitted dose curve at least 0.9, where 1 is the maximum; inconclusive means response in the unintended direction; inactive means score below 0.9.
Possible outcomes: True (active), False (inactive)

INSERT INTO results (compound, group_label) VALUES
  ('NC(=O)Cn1c(=O)cc(CCN2CCN(c3nccc4sccc34)CC2)c2ccc(F)cc21', 'True'),
  ('COc1ccc(S(=O)(=O)N2C(=O)[C@@](c3ccccc3OC)(N3C[C@H](O)C[C@H]3C(=O)N(C)C)c3cc(Cl)ccc32)c(OC)c1', 'False'),
  ('COc1cc(S(=O)(=O)O)c(C)cc1N=Nc1c(O)ccc2cc(S(=O)(=O)O)ccc12', 'True'),
  ('Nc1nc(N)c2nc(CNc3ccc(C(=O)N[C@@H](CCC(=O)O)C(=O)O)cc3)cnc2n1', 'True'),
  ('CC1(C)CC(N=C=O)CC(C)(CN=C=O)C1 (stereo unspecified)', 'False'),
  ('CCCCC(CC)COC(=O)CC(C(=O)OCC(CC)CCCC)S(=O)(=O)O (stereo unspecified)', 'True');

All values here come from PubChem BioAssay (EPA / NIEHS).
